# TEST_TARGET: K-Ras G12C (Homo sapiens (Human), UniProt P01116+P62937, G12C)
# Sequence (P01116-2 other isoform, or with tags, fused parts or gaps G12C): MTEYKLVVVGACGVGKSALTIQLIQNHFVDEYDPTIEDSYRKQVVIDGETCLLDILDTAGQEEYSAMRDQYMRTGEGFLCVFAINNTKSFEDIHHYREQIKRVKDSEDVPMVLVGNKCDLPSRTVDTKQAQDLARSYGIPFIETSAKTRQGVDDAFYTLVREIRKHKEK
# Sequence (P62937 whole entry): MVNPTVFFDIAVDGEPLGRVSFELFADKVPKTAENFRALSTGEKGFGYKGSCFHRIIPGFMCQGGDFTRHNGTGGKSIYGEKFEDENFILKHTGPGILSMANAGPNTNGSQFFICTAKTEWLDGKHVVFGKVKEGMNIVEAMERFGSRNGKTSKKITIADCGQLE
# PROTOCOL_DESCRIPTION: Ras-Raf (BRAF RBD) disruption / FRET / MOA assay, KRAS G12C
# Type: biochemical
# COND: KRAS G12C; Ras-Raf disruption/FRET/MOA assay; read-out: IC50* KRAS G12C FRET data
compounds and their reported IC50

| COMPOUND | TEST_TARGET | IC50 |
| --- | --- | --- |
| C=CC(=O)N1C[C@@H](C(=O)N(C)[C@H](C(=O)N[C@H]2Cc3cccc(c3)-c3ccc4c(c3)c(c(-c3cccnc3[C@H](C)OC)n4CC)CC(C)(C)COC(=O)[C@@H]3CCCN(N3)C2=O)C(C)C)C(C)(C)C1 (atropisomer, axis not shown) | K-Ras G12C (Homo sapiens (Human), UniProt P01116+P62937, G12C) | 10 to 100 nM |
| CCn1c(-c2cccnc2[C@H](C)OC)c2c3cc(ccc31)-c1cccc(c1)C[C@H](NC(=O)[C@H](C(C)C)N(C)C(=O)[C@H]1CCN(S(=O)(=O)C=C(C)C)C1)C(=O)N1CCC[C@H](N1)C(=O)OCC(C)(C)C2 (atropisomer, axis not shown) | K-Ras G12C (Homo sapiens (Human), UniProt P01116+P62937, G12C) | 1000 to 10000 nM |
| C=CC(=O)N1CC[C@H](C(=O)N(C)[C@H](C(=O)N[C@H]2Cc3nc(cs3)-c3ccc4c(c3)c(c(-c3cccnc3[C@H](C)OC)n4CC(F)(F)F)CC(C)(C)COC(=O)[C@@H]3CCCN(N3)C2=O)C(C)C)C1 (atropisomer, axis not shown) | K-Ras G12C (Homo sapiens (Human), UniProt P01116+P62937, G12C) | 100 to 1000 nM |
| C=CC(=O)N1CC[C@H](C(=O)N(C)[C@H](C(=O)N[C@H]2Cc3cc(C(F)F)cc(n3)-c3ccc4c(c3)c(c(-c3cccnc3[C@H](C)OC)n4CC)CC(C)(C)COC(=O)[C@@H]3CCCN(N3)C2=O)C(C)C)C1 (atropisomer, axis not shown) | K-Ras G12C (Homo sapiens (Human), UniProt P01116+P62937, G12C) | 1000 to 10000 nM |

* * *

pIC50 for assorted molecules
# TEST_TARGET: NRAS G12C (Homo sapiens (Human), UniProt P01111+P62937, G12C)
# Sequence (P01111 whole entry G12C, one chain of several): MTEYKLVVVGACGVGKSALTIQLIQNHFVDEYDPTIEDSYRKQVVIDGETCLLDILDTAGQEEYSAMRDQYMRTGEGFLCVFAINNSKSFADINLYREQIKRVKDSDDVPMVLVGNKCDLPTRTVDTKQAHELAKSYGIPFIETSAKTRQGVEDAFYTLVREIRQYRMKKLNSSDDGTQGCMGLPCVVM
# PROTOCOL_DESCRIPTION: Ras-Raf (BRAF RBD) disruption / FRET / MOA assay, NRAS G12C
# Format: biochemical
# COND: read-out: IC50* NRAS G12C FRET data
pIC50: −log10 of the molar value.

| MOLECULE | pIC50 |
| --- | --- |
| C=CC(=O)N1CC[C@H](C(=O)N(C)[C@H](C(=O)N[C@H]2Cc3nc(n(C)n3)-c3ccc4c(c3)c(c(-c3cccnc3[C@H](C)OC)n4CC)CC(C)(C)COC(=O)[C@@H]3CCCN(N3)C2=O)C(C)C)C1 (atropisomer, axis not shown) [Example A314] | 6.00 to 7.00 |
| C=CC(=O)N1CC[C@H](C(=O)N(C)[C@H](C(=O)N[C@H]2Cc3nc(cs3)-c3ccc4c(c3)c(c(-c3cc(C5=CCN(C)CC5)cnc3[C@H](C)OC)n4CC)CC(C)(C)COC(=O)[C@@H]3CCCN(N3)C2=O)C(C)C)C1 (atropisomer, axis not shown) [Example A520] | 6.00 to 7.00 |
| CCn1c(-c2cncnc2)c2c3cc(ccc31)-c1cccc(c1)C[C@H](NC(=O)[C@H](C(C)C)N(C)C(=O)[C@H]1CCN(C(=O)C#CCN3CCOCC3)C1)C(=O)N1CCC[C@H](N1)C(=O)OCC(C)(C)C2 [Example A185] | 6.00 to 7.00 |
| C=CC(=O)N1C[C@H](C(=O)N(C)[C@H](C(=O)N[C@H]2Cc3cccc(c3)-c3ccc4c(c3)c(c(-c3cccnc3[C@H](C)OC)n4CC)CC(C)(C)COC(=O)[C@@H]3CCCN(N3)C2=O)C(C)C)[C@@H](C)C1 (atropisomer, axis not shown) [Example A451] | 6.00 to 7.00 |
